Each item that follows carries a reported Ratio rCT/rAmylin binding.
assayTarget: T1, rat calcitonin receptor (rat, UniProt P32214 25-516)
T1 construct: whole, on cells; Membranes of transiently transfected BHK tk'ts 13 cells; also called rCTR; rat calcitonin (a) receptor
T1 sequence (looked up): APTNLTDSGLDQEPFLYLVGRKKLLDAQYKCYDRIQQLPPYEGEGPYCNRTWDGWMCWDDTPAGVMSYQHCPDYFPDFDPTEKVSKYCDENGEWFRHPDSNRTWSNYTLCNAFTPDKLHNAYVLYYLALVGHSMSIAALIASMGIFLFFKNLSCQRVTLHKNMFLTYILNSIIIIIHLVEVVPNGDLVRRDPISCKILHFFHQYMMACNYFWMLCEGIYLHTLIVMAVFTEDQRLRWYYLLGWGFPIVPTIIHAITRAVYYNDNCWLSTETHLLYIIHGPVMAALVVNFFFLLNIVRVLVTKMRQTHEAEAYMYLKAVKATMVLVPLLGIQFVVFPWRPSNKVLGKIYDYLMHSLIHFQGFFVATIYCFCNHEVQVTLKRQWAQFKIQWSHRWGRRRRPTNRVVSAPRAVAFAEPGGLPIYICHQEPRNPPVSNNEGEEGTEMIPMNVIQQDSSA
assaySummary: ratio of IC50 on rat calcitonin receptor to IC50 on rat amylin receptor (reference m40)
Numbered stars: 1 amine (or outer) side, 2 acyl side, 3 side chain; on linkers, the order of the positions; unused ones are H or OH. Bridge positions count the residues as written; N and C are the ends. Side chains are listed from the residue outwards. Ends that are not written are not given here. * marks the point of attachment. C20 diacid = O=C(O)CCCCCCCCCCCCCCCCCCC(=O)*; γGlu = O=C(O)[C@H](CCC(=O)[*:2])N[*:1]
measuredEndpoint: Ratio rCT/rAmylin binding

{"binder": "K([γGlu-C20 diacid])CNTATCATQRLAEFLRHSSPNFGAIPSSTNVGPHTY-NH2 (disulfide 2-7, Synthetic acylated analogue of human amylin)", "measuredEndpoint": "Ratio rCT/rAmylin binding", "testResult": 52.2}
{"binder": "K([γGlu-γGlu-C20 diacid])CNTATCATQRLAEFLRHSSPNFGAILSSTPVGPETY-NH2 (disulfide 2-7, Synthetic acylated analogue of human amylin)", "measuredEndpoint": "Ratio rCT/rAmylin binding", "testResult": 74.7}
{"binder": "K([γGlu-γGlu-C20 diacid])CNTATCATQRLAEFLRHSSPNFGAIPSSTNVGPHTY-NH2 (disulfide 2-7 (inferred), Synthetic acylated analogue of human amylin)", "measuredEndpoint": "Ratio rCT/rAmylin binding", "testResult": 73}
{"binder": "{C20 diacid-γGlu}-GRCNTATCATQRLAAFLRHSSPNFGAIPSSTNVGPNTY-NH2 (disulfide 3-8, Synthetic acylated analogue of human amylin, extended by Gly at position -1)", "measuredEndpoint": "Ratio rCT/rAmylin binding", "testResult": 129}
